B1: glmS ribozyme (parent)
chain: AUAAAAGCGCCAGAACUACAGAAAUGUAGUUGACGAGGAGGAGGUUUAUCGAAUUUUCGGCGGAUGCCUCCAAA

Variants of: B1
assay explanation: self-cleavage kobs at 10000 uM GlcN6P; higher = faster cleavage; RNA array
measurement parameters: with glucosamine-6-phosphate
This sample holds only a part of the variants without activity.
quantity kind: self-cleavage kobs at 10000 uM GlcN6P

Answered cases to consult:
G7C A24U U46A C68U: < 1e-05 s⁻¹
G51C C61A: < 1e-05 s⁻¹
U57C G62U U65C: < 1e-05 s⁻¹
C8U U45G C50U U65C: < 1e-05 s⁻¹
C8U U49C: < 1e-05 s⁻¹
C11G G29U C34A A36U G37U G44C C68U: < 1e-05 s⁻¹

--- query ---
Query :: Looking for the measured self-cleavage kobs at 10000 uM GlcN6P of C8G G60A C61A , can you help?
Result :: < 1e-05 s⁻¹
